# assay-method-text: Terminal half life in C57BL/6 mouse at 80 mg/kg, po and measured upto 24 hrs by LC-MS/MS analysis
# Assay type: ADME, organism-based
# conditions: in vivo, read-out: beta t1/2 (converted)
measured-parameter: half-life (h)

sample_smiles=COc1cc2ncnc(Nc3ccc(O[C@H]4CO[C@H]5[C@@H]4OC[C@@H]5O)c(Cl)c3)c2cc1OC result_unit=h endpoint_value=1.19

* * *

# assay-method-text: AUC (0-t) in C57BL/6 mouse at 61 mg/kg, po and measured for 4 to 10 hrs by LC-MS/MS analysis
# Format: ADME, organism-based
# Set-up: time lower 4 hrs, dose 61 mg/kg, time upper 10 hrs, route po
# conditions: in vivo
measured-parameter: AUC(0-t) (ng·h/mL)

sample_smiles=COc1cc2ncnc(Nc3ccc(F)c(Cl)c3)c2cc1OC endpoint_value=25500

* * *

# assay-method-text: AUC (0-infinity) in C57BL/6 mouse at 61 mg/kg, po and measured upto 24 hrs by LC-MS/MS analysis
# Assay type: ADME, organism-based
# Design: dose 61 mg/kg, time < 24 hrs, route po
# conditions: in vivo
measured-parameter: AUC(0-inf) (ng·h/mL)

sample_smiles=COc1cc2ncnc(Nc3ccc(F)c(Cl)c3)c2cc1OC measured_parameter=AUC(0-inf) endpoint_value=26300

* * *

# assay-method-text: Half life in C57BL/6 mouse plasma at 50 mg/kg,po and measured upto 24 hrs by LC-MS/MS analysis
# Format: ADME, organism-based
measured-parameter: half-life (min)

sample_smiles=Cc1cccc(Cl)c1C(=O)N[C@@H](Cc1ccc(-c2c(C)n(C)c(=O)n(C)c2=O)cc1)C(=O)O measured_parameter=half-life result_unit=min endpoint_value=40.2

* * *

# assay-method-text: AUC (0-6 hrs) in C57BL/6 mouse plasma at 50 mg/kg,po and measured upto 24 hrs by LC-MS/MS analysis
# Assay type: ADME, organism-based
# Design: dose 50 mg/kg, time < 24 hrs, route po
measured-parameter: AUC(0-t) at 24 h (ng·h/mL)

sample_smiles=Cc1cccc(Cl)c1C(=O)N[C@@H](Cc1ccc(-c2c(C)n(C)c(=O)n(C)c2=O)cc1)C(=O)O measured_parameter="AUC(0-t) at 24 h" result_unit=ng·h/mL endpoint_value=616

* * *

# assay-method-text: Solubility in simulated gastric fluid at pH 1.2 at 30 uM incubated for 90 mins in presence of 0.5% SDS by HPLC-UV analysis
# Type: ADME
measured-parameter: solubility at 1.5 h, 30 µM (µg/mL)

sample_smiles=COc1cc2ncnc(Nc3ccc(O[C@H]4CO[C@H]5[C@@H]4OC[C@@H]5O)c(Cl)c3)c2cc1OC measured_parameter="solubility at 1.5 h, 30 µM" result_unit=µg/mL endpoint_value=56
sample_smiles=COc1cc2ncnc(Nc3ccc(F)c(Cl)c3)c2cc1OC measured_parameter="solubility at 1.5 h, 30 µM" result_unit=µg/mL endpoint_value=23.6

* * *

// reported solubility at 1.5 h, 30 µM per item
# assay-method-text: Solubility in simulated intestinal fluid at pH 6.8 at 30 uM incubated for 90 mins in presence of 0.5% SDS by HPLC-UV analysis
# Assay type: ADME
measured-parameter: solubility at 1.5 h, 30 µM (µg/mL)

sample_smiles=COc1cc2ncnc(Nc3ccc(F)c(Cl)c3)c2cc1OC measured_parameter="solubility at 1.5 h, 30 µM" result_unit=µg/mL endpoint_value=63.9
sample_smiles=COc1cc2ncnc(Nc3ccc(O[C@H]4CO[C@H]5[C@@H]4OC[C@@H]5O)c(Cl)c3)c2cc1OC measured_parameter="solubility at 1.5 h, 30 µM" result_unit=µg/mL endpoint_value=80.8
